We begin with a simple list: items and their reported pIC50.
target: porcine pancreatic elastase (Sus scrofa); construct: purchased Sigma, USA; assay: Inhibition of porcine pancreatic elastase (MeOSuc-AAA-pNA hydrolysis); format: biochemical; settings: 15 nM enzyme, 1 mM substrate, 37° C., pH8; read-out: Porcine pancreatic elastase (PPE) IC50
pIC50: −log10 of the molar value. Non-standard residues stand in square brackets, D forms with d. Residues, ends and D or L forms follow the SMILES beside them. hTyr = N[C@@H](CCc1ccc(O)cc1)C(=O)O; Aad = N[C@@H](CCCC(=O)O)C(=O)O

Here are 2 compounds together with their reported answers.
{"compound": "CC[C@H](C)[C@@H]1NC(=O)[C@H](CO)NC(=O)[C@H](C)NC(=O)[C@H]([C@@H](C)O)NC(=O)[C@H](CCC(=O)O)NC(=O)[C@H](CCCNC(=N)N)NC(=O)[C@@H]2CCCN2C(=O)[C@H]2CCCN2C(=O)[C@H](CCCC(N)=O)NC(=O)[C@H](CCCCN)NC(=O)[C@H](Cc2ccc(O)cc2)NC(=O)[C@@H]2CCCN2C(=O)[C@@H]2CCCN2C1=O [Example 12] (cyclo(RETASIPPYK[Aad](NH2)[dP]P))", "target.under.test": "porcine pancreatic elastase (Sus scrofa)", "pIC50": "< 4.00"}
{"compound": "CC[C@H](C)[C@@H]1NC(=O)[C@H](CO)NC(=O)[C@H](C)NC(=O)[C@H]([C@@H](C)O)NC(=O)[C@H](CCC(=O)O)NC(=O)[C@H](CCCNC(=N)N)NC(=O)[C@@H]2CCCN2C(=O)[C@H]2CCCN2C(=O)[C@H]([C@@H](C)O)NC(=O)[C@H](CCCCN)NC(=O)[C@H](CCC(N)=O)NC(=O)[C@@H]2CCCN2C(=O)[C@@H]2CCCN2C1=O [Example 11] (cyclo(RETASIPPQKT[dP]P))", "target.under.test": "porcine pancreatic elastase (Sus scrofa)", "pIC50": "< 4.00"}

Assign pIC50 to the following record: CC[C@H](C)[C@@H]1NC(=O)[C@H](CO)NC(=O)[C@H](C)NC(=O)[C@H]([C@@H](C)O)NC(=O)[C@H](CCc2ccc(O)cc2)NC(=O)[C@H](CCCNC(=N)N)NC(=O)[C@@H]2CCCN2C(=O)[C@H]2CCCN2C(=O)[C@H](Cc2ccc(O)cc2)NC(=O)[C@H](CCCCN)NC(=O)[C@H](CCC(N)=O)NC(=O)[C@@H]2CCCN2C(=O)[C@@H]2CCCN2C1=O [Example 5] (cyclo(R[hTyr]TASIPPQKY[dP]P))
5.76

###

molecular target: human neutrophil elastase (Homo sapiens, UniProt P08246); construct: purchased Serva Electrophoresis, Germany; assay: Inhibition of human neutrophil elastase (MeOSuc-AAPV-pNA hydrolysis); assay type: biochemical; settings: 10 nM enzyme, 0.3 mM substrate, 37° C., pH 8; read-out: Human neutrophil elastase (hNE) IC50
Sequence (P08246 30-267): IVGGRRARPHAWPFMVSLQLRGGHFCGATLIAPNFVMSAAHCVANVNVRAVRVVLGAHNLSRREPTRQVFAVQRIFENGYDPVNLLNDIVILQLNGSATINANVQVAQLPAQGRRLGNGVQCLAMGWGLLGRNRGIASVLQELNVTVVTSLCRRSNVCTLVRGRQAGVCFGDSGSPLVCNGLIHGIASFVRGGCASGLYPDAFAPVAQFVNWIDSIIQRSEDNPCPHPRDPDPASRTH
Non-standard residues stand in square brackets, D forms with d. Residues, ends and D or L forms follow the SMILES beside them.
readout.type: IC50 (nM)
Use nM as the unit, but write only the number.

{"compound": "CC[C@H](C)[C@@H]1NC(=O)[C@H](CO)NC(=O)[C@H](C)NC(=O)[C@H]([C@@H](C)O)NC(=O)[C@H](CCC(=O)O)NC(=O)[C@H](CCCNC(=N)N)NC(=O)[C@@H]2CCCN2C(=O)[C@H]2CCCN2C(=O)[C@H](CO)NC(=O)[C@H](CCCCN)NC(=O)[C@H](Cc2ccc(O)cc2)NC(=O)[C@@H]2CCCN2C(=O)[C@@H]2CCCN2C1=O [Example 8] (cyclo(RETASIPPYKS[dP]P))", "target.under.test": "human neutrophil elastase (Homo sapiens, UniProt P08246)", "readout.type": "IC50", "units.text": "nM", "value.observed": 16.4}

Field: next compound
Assign IC50 to the following record: CC[C@H](C)[C@@H]1NC(=O)[C@H](CO)NC(=O)[C@H](C)NC(=O)[C@H]([C@@H](C)O)NC(=O)[C@H](CCC(=O)O)NC(=O)[C@H](CCCNC(=N)N)NC(=O)[C@@H]2CCCN2C(=O)[C@H]2CCCN2C(=O)[C@H](Cc2c[nH]cn2)NC(=O)[C@H](CCCCN)NC(=O)[C@H](Cc2ccc(O)cc2)NC(=O)[C@@H]2CCCN2C(=O)[C@@H]2CCCN2C1=O [Example 14] (cyclo(RETASIPPYKH[dP]P))
20.3

###

Target: human neutrophil elastase (Homo sapiens)
Construct: purchased Serva Electrophoresis, Germany
Experiment: Inhibition of human neutrophil elastase (MeOSuc-AAPV-pNA hydrolysis)
Format: biochemical
Conditions: 10 nM enzyme, 0.3 mM substrate, 37° C., pH 8; read-out: Human neutrophil elastase (hNE) IC50
Protocol: 2.2. Inhibition of Human Neutrophil Elastase The ability of the peptides of the invention to inhibit the hydrolysis activity of human neutrophil elastase (Serva Electrophoresis, Germany) using the synthetic tetrapeptidic substrate MeOSuc-AAPV-pNA (Bachem, Switzerland) was determined as follows: […]
Non-standard residues stand in square brackets, D forms with d. Residues, ends and D or L forms follow the SMILES beside them. Gly(octyl) = CCCCCCCC[C@H](N)C(=O)O; hLeu = CC(C)CC[C@H](N)C(=O)O
readout.type: pIC50
API: returns pIC50 as number; meaning -log10 of concentration in mol/L.

Assign pIC50 to the following record: CC[C@H](C)[C@@H]1NC(=O)[C@H](CO)NC(=O)[C@H](C)NC(=O)[C@H]([C@@H](C)O)NC(=O)[C@H](CCC(=O)O)NC(=O)[C@H](CCCNC(=N)N)NC(=O)[C@@H]2CCCN2C(=O)[C@H]2CCCN2C(=O)[C@H](CCC(C)C)NC(=O)[C@H](CCCCN)NC(=O)[C@H](CCC(N)=O)NC(=O)[C@@H]2CCCN2C(=O)[C@@H]2CCCN2C1=O [Example 10] (cyclo(RETASIPPQK[hLeu][dP]P))
7.52

Assign pIC50 to the following record: CC[C@H](C)[C@@H]1NC(=O)[C@H](CO)NC(=O)[C@H](C)NC(=O)[C@H]([C@@H](C)O)NC(=O)[C@H](C(C)C)NC(=O)[C@H](CCCNC(=N)N)NC(=O)[C@@H]2CCCN2C(=O)[C@H]2CCCN2C(=O)[C@H](Cc2ccc(O)cc2)NC(=O)[C@H](CCCCN)NC(=O)[C@H](CCC(N)=O)NC(=O)[C@@H]2CCCN2C(=O)[C@@H]2CCCN2C1=O [Example 18] (cyclo(RVTASIPPQKY[dP]P))
8.16

Assign pIC50 to the following record: CCCCCCCC[C@@H]1NC(=O)[C@@H]2CCCN2C(=O)[C@H]2CCCN2C(=O)[C@H](CC(N)=O)NC(=O)[C@H](CCCCN)NC(=O)[C@H](CCC(N)=O)NC(=O)[C@@H]2CCCN2C(=O)[C@@H]2CCCN2C(=O)[C@H]([C@@H](C)CC)NC(=O)[C@H](CO)NC(=O)[C@H](C)NC(=O)[C@H]([C@@H](C)O)NC(=O)[C@H](CCC(=O)O)NC1=O [Example 1] (cyclo([Gly(octyl)]ETASIPPQKN[dP]P))
8.28

###

We begin with a simple list: items and their reported hNE/PPE selectivity.
target: porcine pancreatic elastase (Sus scrofa, UniProt P00772); construct: purchased Sigma, USA; assay: Inhibition of porcine pancreatic elastase (MeOSuc-AAA-pNA hydrolysis); type: biochemical; conditions: ratio of PPE IC50 to hNE IC50
Sequence (P00772 27-266): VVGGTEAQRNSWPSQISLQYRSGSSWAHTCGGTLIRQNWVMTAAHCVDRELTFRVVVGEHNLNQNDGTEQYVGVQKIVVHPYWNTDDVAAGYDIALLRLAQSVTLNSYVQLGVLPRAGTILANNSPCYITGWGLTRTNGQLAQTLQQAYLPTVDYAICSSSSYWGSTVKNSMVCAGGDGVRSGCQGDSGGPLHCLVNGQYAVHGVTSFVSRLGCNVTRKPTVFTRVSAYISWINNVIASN
Non-standard residues stand in square brackets, D forms with d. Residues, ends and D or L forms follow the SMILES beside them. Gly(octyl) = CCCCCCCC[C@H](N)C(=O)O; hArg = N=C(N)NCCCC[C@H](N)C(=O)O; AllylGly = C=CC[C@H](N)C(=O)O
Lab note: record the figure alone, no unit after it.

Here are 2 compounds together with their reported answers.
{"compound": "CCCCCCCC[C@@H]1NC(=O)[C@@H]2CCCN2C(=O)[C@H]2CCCN2C(=O)[C@H](CO)NC(=O)[C@H](CCCCN)NC(=O)[C@H](CCC(N)=O)NC(=O)[C@@H]2CCCN2C(=O)[C@@H]2CCCN2C(=O)[C@H]([C@@H](C)CC)NC(=O)[C@H](CO)NC(=O)[C@H](C)NC(=O)[C@H]([C@@H](C)O)NC(=O)[C@H](CCC(=O)O)NC1=O [Example 3] (cyclo([Gly(octyl)]ETASIPPQKS[dP]P))", "hNE/PPE selectivity": 144}
{"compound": "CC[C@H](C)[C@@H]1NC(=O)[C@H](CO)NC(=O)[C@H](C)NC(=O)[C@H]([C@@H](C)O)NC(=O)[C@H](CCC(=O)O)NC(=O)[C@H](CCCCNC(=N)N)NC(=O)[C@@H]2CCCN2C(=O)[C@H]2CCCN2C(=O)[C@H]([C@@H](C)O)NC(=O)[C@H](CCCCN)NC(=O)[C@H](CCC(N)=O)NC(=O)[C@@H]2CCCN2C(=O)[C@@H]2CCCN2C1=O [Example 9] (cyclo([hArg]ETASIPPQKT[dP]P))", "hNE/PPE selectivity": 3519}

Given C=CC[C@@H]1NC(=O)[C@H]([C@@H](C)O)NC(=O)[C@H](CCC(=O)O)NC(=O)[C@H](CCCNC(=N)N)NC(=O)[C@@H]2CCCN2C(=O)[C@H]2CCCN2C(=O)[C@H]([C@@H](C)O)NC(=O)[C@H](CCCCN)NC(=O)[C@H](CCC(N)=O)NC(=O)[C@@H]2CCCN2C(=O)[C@@H]2CCCN2C(=O)[C@H]([C@@H](C)CC)NC(=O)[C@H](CO)NC1=O [Example 7] (cyclo(RET[AllylGly]SIPPQKT[dP]P)) , report its hNE/PPE selectivity on porcine pancreatic elastase (Sus scrofa, UniProt P00772).
3960
